Taken from patent US11098058B2.

Molecular target: human RIP1 kinase domain (2-375) (Homo sapiens (Human))
Sequence (Q13546 2-375): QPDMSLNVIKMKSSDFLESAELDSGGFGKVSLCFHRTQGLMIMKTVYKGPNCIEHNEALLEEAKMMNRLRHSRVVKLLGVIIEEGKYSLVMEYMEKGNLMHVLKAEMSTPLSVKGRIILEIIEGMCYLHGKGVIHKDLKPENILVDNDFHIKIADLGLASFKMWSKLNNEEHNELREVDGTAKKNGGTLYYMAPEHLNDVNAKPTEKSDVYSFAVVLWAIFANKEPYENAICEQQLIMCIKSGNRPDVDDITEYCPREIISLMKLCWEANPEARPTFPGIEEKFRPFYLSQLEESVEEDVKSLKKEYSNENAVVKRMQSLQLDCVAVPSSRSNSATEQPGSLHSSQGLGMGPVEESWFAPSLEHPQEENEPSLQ
Settings: RIP1 kinase inhibition, tight-binding apparent Ki; 50 nM enzyme, 50 μM ATP, 2 hours incubation
property.measured: Ki (nM)
Could you give me the number in nM? Just the number is fine.

compound: O=C(c1nc2n(n1)[C@H](c1ncccc1F)C[C@H]2F)C1CC1 (single isomer, unassigned) [Example 151]
measurement.unit: nM
Ki: 230

Please look at this compound and report its Ki: O=C(c1nc2n(n1)[C@H](c1c(F)ccc(F)c1F)C[C@@H]2F)C1CC1 (single isomer, unassigned) [Example 102] 3.6

Please look at this compound and report its Ki: O=C(c1nc2n(n1)[C@H](c1ccccc1)C[C@@H]2F)C1CC(F)(F)C1 (single isomer, unassigned) [Example 73] 3.4

###

Readings of Ki for the listed molecules
Biological target: human RIP1 kinase domain (2-375) (Homo sapiens (Human))
Assay: biochemical
Details: RIP1 kinase inhibition, tight-binding apparent Ki, 50 nM enzyme, 50 μM ATP, 2 hours incubation
Could you give me the number in nM? Just the number is fine.

Reference set, count: 5
molecule: CC1(C(=O)c2nc3n(n2)[C@H](c2ccccc2)C[C@@H]3F)CCCO1 (mixture of isomers)
measurement.unit: nM
data.value: 47
--
molecule: O=C(c1nc2n(n1)[C@H](c1ccccc1)C[C@@H]2F)C1CCCOC1 (mixture of isomers)
measurement.unit: nM
data.value: 16
--
molecule: O=C(c1nc2n(n1)[C@H](c1ccccc1)C[C@@H]2F)[C@@H]1CC12CC2 (racemic)
measurement.unit: nM
data.value: 4
--
molecule: O=C(c1nc2n(n1)[C@H](c1ccccc1)C[C@@H]2F)[C@H]1CC12CC2 (racemic)
measurement.unit: nM
data.value: 16
--
molecule: [2H][C@]1(F)C[C@@H](c2ccccc2)n2nc(C(=O)C3CC3)nc21 (single isomer, unassigned)
measurement.unit: nM
data.value: 7.9

Please look at the following molecule next.
Please look at this molecule and report its Ki: [2H][C@]1(Cl)C[C@@H](c2ccccc2)n2nc(C(=O)C3CC3)nc21 (racemic) 36
